- TEST NAME: Study .2: multiple rising dose trial in diabetic patients, once daily for 8 days, pharmacokinetic parameters
- Format: in vivo, human
- CONDITION LABEL: human, plasma, oral, 25 mg, 25 mg single dose, Study .2, fasted; read-out: Cmax gMean
RECORDED ENDPOINT: Cmax (nM)
# output: bare number, implied unit nM

Task item: Need Cmax of "OC[C@H]1O[C@@H](c2ccc(Cl)c(Cc3ccc(O[C@H]4CCOC4)cc3)c2)[C@H](O)[C@@H](O)[C@@H]1O" , thanks.
Reply: 592

----------
- TEST NAME: Study .2: multiple rising dose trial in diabetic patients, once daily for 8 days, pharmacokinetic parameters
- Format: in vivo, human
- CONDITION LABEL: human, plasma, oral, 25 mg, 25 mg single dose, Study .2, fasted; read-out: tmax Median
RECORDED ENDPOINT: Tmax
Report as: number unit

Task item: // lookup Tmax for "OC[C@H]1O[C@@H](c2ccc(Cl)c(Cc3ccc(O[C@H]4CCOC4)cc3)c2)[C@H](O)[C@@H](O)[C@@H]1O"
Reply: 1.5 h
